Cited source for all entries: patent US20240084003A1

Target: T1, human CD22-ECD-His protein (human, UniProt P20273 20-687)
T1 construct: Recombinant, from HEK293E cells; also called hCD22-ECD-His; human CD22-His protein; not shown: His tag
T1 sequence: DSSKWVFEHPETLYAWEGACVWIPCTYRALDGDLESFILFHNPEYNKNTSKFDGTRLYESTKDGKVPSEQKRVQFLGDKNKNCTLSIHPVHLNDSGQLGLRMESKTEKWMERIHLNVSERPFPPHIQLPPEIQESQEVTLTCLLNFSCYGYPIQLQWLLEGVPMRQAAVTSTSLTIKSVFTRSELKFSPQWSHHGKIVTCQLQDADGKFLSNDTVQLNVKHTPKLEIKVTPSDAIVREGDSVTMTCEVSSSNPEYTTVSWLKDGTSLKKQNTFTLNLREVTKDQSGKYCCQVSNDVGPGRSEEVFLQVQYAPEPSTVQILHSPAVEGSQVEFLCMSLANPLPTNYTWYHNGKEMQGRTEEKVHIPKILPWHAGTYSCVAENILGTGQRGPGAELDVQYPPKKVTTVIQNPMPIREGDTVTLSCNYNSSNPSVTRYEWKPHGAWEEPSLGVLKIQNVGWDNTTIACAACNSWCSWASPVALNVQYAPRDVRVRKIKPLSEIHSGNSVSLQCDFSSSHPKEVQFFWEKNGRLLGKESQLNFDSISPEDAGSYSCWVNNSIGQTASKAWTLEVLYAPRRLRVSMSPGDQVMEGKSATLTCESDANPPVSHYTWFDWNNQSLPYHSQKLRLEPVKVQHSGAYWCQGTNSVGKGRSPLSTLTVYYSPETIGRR
Test: SPR (Biacore), antibody captured on Protein A chip, CD22-ECD-His in solution
Recorded koff values for a group of binders are listed next.
Write it as a number; the unit s⁻¹ goes unstated.

INSERT INTO measurements (binder, assay_result) VALUES
  ('F1.192.1 (antibody, human IgG1, kappa, V domains shown, Chimeric IgG1 kappa) VH: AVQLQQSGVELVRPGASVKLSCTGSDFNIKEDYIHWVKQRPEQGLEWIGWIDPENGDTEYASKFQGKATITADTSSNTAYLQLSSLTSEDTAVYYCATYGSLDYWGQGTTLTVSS VL: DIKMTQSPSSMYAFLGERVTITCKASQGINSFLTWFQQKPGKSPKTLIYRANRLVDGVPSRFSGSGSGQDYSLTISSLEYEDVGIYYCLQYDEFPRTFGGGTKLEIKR', 0.000244);

Sample F2.173.9 (antibody, human IgG1, lambda, V domains shown, Chimeric IgG1 lambda) VH: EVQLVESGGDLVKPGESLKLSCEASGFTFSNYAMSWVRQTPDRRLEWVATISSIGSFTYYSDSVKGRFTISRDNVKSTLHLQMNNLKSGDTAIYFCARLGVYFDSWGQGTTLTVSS VL: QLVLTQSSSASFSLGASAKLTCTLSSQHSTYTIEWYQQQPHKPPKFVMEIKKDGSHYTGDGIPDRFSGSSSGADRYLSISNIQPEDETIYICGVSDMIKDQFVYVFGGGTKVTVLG — what was its koff?
0.000232

Sample F1.216.2 (antibody, human IgG1, kappa, V domains shown, Chimeric IgG1 kappa) VH: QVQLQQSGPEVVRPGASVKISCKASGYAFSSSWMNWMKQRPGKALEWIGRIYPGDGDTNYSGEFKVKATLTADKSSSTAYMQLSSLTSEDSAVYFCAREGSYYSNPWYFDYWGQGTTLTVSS VL: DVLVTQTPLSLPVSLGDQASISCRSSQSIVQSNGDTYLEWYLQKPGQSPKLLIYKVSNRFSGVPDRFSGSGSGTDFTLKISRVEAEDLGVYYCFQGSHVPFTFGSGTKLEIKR — what was its koff?
0.000944
